- protocol_description: molar heat capacity at constant pressure
- cond: 70 K; 101.33 kPa; Crystal
observed_property: molar heat capacity at constant pressure (J/K/mol)

Consider the reported molar heat capacity at constant pressure for these compounds:
CCCCCCCCCCCCCC(=O)OC [methyl tetradecanoate]    133.41
CCCCCCCCCCCCCCCCCCCC(=O)OC [methyl eicosanoate]    176.8
CCCCCCCCCCCCCCCC(=O)OC [methyl hexadecanoate]    151.19
CCCCCCCCCCCCCCC(=O)OC [methyl pentadecanoate]    141.42
CCCCCCCCCCCCC(=O)OC [methyl tridecanoate]    127.88

1: CCCCCCCCCCC(=O)OC [methyl undecanoate]
2: CCCCCCCCCCCCCCCCCC(=O)OC [methyl octadecanoate]
Qu. Choose between 1 and 2 : whose measured molar heat capacity at constant pressure value is numerically larger? Please reply using the label of the selected record.
Ans. 2
(2: 162.71 J/K/mol, 1: 113.74 J/K/mol)

====

- protocol_description: molar heat capacity at constant pressure
- cond: 230 K; 101.33 kPa; Crystal
observed_property: molar heat capacity at constant pressure (J/K/mol)

CCCCCCCCCCCCCCCCC(=O)OC [methyl heptadecanoate]    382.88
CCCCCCCCCCCCCCCCCCC(=O)OC [methyl nonadecanoate]    413.93
CCCCCCCCCCCCCCC(=O)OC [methyl pentadecanoate]    341.8
CCCCCCCC(=O)OC [methyl octanoate]    242.75
CCCCCCCCCC(=O)OC [methyl decanoate]    256.05
CCCCCCCCCCCCCCCCCCCC(=O)OC [methyl eicosanoate]    427.04
CCCCCCCCC(=O)OC [methyl nonanoate]    265.31
CCCCCCCCCCCCCCCC(=O)OC [methyl hexadecanoate]    357.74
CCCCCCCCCCCCC(=O)OC [methyl tridecanoate]    307.94

====

- protocol_description: molar heat capacity at constant pressure
- cond: 5 K; 101.33 kPa; Crystal
observed_property: molar heat capacity at constant pressure (J/K/mol)

CCCCCCCCCC(=O)OC [methyl decanoate]    0.45
CCCCCCCCCCCCCCCCCCCC(=O)OC [methyl eicosanoate]    0.75
CCCCCCCCCCCCCCC(=O)OC [methyl pentadecanoate]    0.5
CCCCCCCCCCCCC(=O)OC [methyl tridecanoate]    0.53

====

- protocol_description: molar heat capacity at constant pressure
- cond: 90 K; 101.33 kPa; Crystal
observed_property: molar heat capacity at constant pressure (J/K/mol)

CCCCCCCCCCCCCCCCCC(=O)OC [methyl octadecanoate]    201.46
CCCCCCCCCCCCCC(=O)OC [methyl tetradecanoate]    165.54
CCCCCCCCCCCCCCCC(=O)OC [methyl hexadecanoate]    184.19

====

- protocol_description: molar heat capacity at constant pressure
- cond: 10 K; 101.33 kPa; Crystal
observed_property: molar heat capacity at constant pressure (J/K/mol)

CCCCCCCCCCC(=O)OC [methyl undecanoate]    3.28
CCCCCCCCCCCC(=O)OC [methyl dodecanoate]    4.31
CCCCCCCCCCCCCC(=O)OC [methyl tetradecanoate]    4.56
CCCCCCCCCCCCCCCCCCC(=O)OC [methyl nonadecanoate]    5.1
CCCCCCCCCCCCC(=O)OC [methyl tridecanoate]    4.03

====

- protocol_description: molar heat capacity at constant pressure
- cond: 160 K; 101.33 kPa; Crystal
observed_property: molar heat capacity at constant pressure (J/K/mol)

CCCCCCCCCCCCCCCC(=O)OC [methyl hexadecanoate]    272.73
CCCCCCCCCCCCC(=O)OC [methyl tridecanoate]    234.95
CCCCCCCCCCCCCCC(=O)OC [methyl pentadecanoate]    260.57

====

- protocol_description: molar heat capacity at constant pressure
- cond: 60 K; 101.33 kPa; Crystal
observed_property: molar heat capacity at constant pressure (J/K/mol)

CCCCCCCCCCCCCCCC(=O)OC [methyl hexadecanoate]    129.69
CCCCCCCCCCCCC(=O)OC [methyl tridecanoate]    108.8
CCCCCCCCCC(=O)OC [methyl decanoate]    91.46
CCCCCCCCCCCCCC(=O)OC [methyl tetradecanoate]    113.9
CCCCCCCCCCCC(=O)OC [methyl dodecanoate]    103.02

====

- protocol_description: molar heat capacity at constant pressure
- cond: 150 K; 101.33 kPa; Crystal
observed_property: molar heat capacity at constant pressure (J/K/mol)

CCCCCCCCCCC(=O)OC [methyl undecanoate]    200.53
CCCCCCCCCCCC(=O)OC [methyl dodecanoate]    209.76
CCCCCCCCC(=O)OC [methyl nonanoate]    175.96
CCCCCCCCCCCCCC(=O)OC [methyl tetradecanoate]    235.23
CCCCCCCCCCCCCCCCCC(=O)OC [methyl octadecanoate]    286.99
CCCCCCCCCCCCC(=O)OC [methyl tridecanoate]    225.37

====

- protocol_description: molar heat capacity at constant pressure
- cond: 100 K; 101.33 kPa; Crystal
observed_property: molar heat capacity at constant pressure (J/K/mol)

// solved cases for molar heat capacity at constant pressure follow
CCCCCCCCCCC(=O)OC [methyl undecanoate]    152.92
CCCCCCCCCCCCCCCCCC(=O)OC [methyl octadecanoate]    217.35
CCCCCCCCCCCCCC(=O)OC [methyl tetradecanoate]    179.38

a: CCCCCCCCCCCCCCCCC(=O)OC [methyl heptadecanoate]
b: CCCCCCCC(=O)OC [methyl octanoate]
Qu. Between a and b , which one shows the larger molar heat capacity at constant pressure value? Write the label of whichever entry you select.
Ans. a

====

- protocol_description: molar heat capacity at constant pressure
- cond: 30 K; 101.33 kPa; Crystal
observed_property: molar heat capacity at constant pressure (J/K/mol)

CCCCCCCCCCCCCCCCCCCC(=O)OC [methyl eicosanoate]    56.97
CCCCCCCCCCCCCCCCCCC(=O)OC [methyl nonadecanoate]    55.13
CCCCCCCCCCCCCCC(=O)OC [methyl pentadecanoate]    43.92
